Catalogue of Kd values
- TEST_SYSTEM: T1, biotinylated cTfR1 (Acro Bio p/n TFR-C8249) (cynomolgus monkey, UniProt H9EXL1 89-760 (rhesus entry), biotinylated; site not stated)
- T1 construct: Bought reagent of the BLI assay
- T1 sequence (chain, as listed by the source): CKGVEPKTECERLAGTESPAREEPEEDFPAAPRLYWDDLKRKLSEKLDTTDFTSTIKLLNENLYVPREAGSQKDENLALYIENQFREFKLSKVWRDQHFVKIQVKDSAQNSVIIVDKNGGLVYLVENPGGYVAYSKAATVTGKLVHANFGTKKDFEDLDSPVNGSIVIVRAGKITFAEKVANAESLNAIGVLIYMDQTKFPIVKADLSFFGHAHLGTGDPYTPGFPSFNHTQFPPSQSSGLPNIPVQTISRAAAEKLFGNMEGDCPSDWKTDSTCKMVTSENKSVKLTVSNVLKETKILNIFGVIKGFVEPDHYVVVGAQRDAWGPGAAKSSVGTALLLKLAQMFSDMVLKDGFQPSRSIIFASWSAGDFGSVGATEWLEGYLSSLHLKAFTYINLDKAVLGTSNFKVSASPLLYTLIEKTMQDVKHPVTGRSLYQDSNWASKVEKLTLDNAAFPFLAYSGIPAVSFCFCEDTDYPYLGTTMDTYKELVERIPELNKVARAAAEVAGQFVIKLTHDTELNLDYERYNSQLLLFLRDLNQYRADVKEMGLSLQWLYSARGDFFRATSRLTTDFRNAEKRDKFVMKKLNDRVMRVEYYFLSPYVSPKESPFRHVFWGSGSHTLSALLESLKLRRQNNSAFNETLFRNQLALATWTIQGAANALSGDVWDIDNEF
- ASSAY_DETAILS: BLI, Octet RH16, biotinylated TfR1 on streptavidin sensor; Fab-siRNA conjugate
VALUE_TYPE: Kd (nM)

1) Fab0073-siRNA conjugate (Fab, V domains shown, siRNA-linker on a reduced cysteine; chain and residue not stated, also called Fab0073 (BLI conjugate columns)) VH: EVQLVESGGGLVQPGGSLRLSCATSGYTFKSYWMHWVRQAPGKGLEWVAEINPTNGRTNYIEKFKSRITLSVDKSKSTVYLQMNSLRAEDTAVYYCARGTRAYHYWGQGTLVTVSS VL: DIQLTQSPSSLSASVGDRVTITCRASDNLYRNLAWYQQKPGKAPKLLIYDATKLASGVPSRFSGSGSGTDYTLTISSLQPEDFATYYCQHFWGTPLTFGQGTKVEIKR = 9.23
2) Fab0002-siRNA conjugate (Fab, V domains shown, siRNA-linker on a reduced cysteine; chain and residue not stated, also called Fab0002 (BLI conjugate columns)) VH: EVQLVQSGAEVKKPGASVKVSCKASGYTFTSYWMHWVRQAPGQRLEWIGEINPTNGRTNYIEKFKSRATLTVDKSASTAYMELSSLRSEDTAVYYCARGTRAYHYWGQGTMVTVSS VL: DIQMTQSPSSLSASVGDRVTITCRASDNLYSNLAWYQQKPGKSPKLLVYDATNLADGVPSRFSGSGSGTDYTLTISSLQPEDFATYYCQHFWGTPLTFGQGTKVEIKR = 25.1
3) Fab0061-siRNA conjugate (Fab, V domains shown, siRNA-linker on a reduced cysteine; chain and residue not stated, also called Fab0061 (BLI conjugate columns)) VH: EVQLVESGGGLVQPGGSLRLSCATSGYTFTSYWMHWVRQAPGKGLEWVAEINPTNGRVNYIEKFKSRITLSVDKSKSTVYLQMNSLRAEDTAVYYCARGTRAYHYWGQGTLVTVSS VL: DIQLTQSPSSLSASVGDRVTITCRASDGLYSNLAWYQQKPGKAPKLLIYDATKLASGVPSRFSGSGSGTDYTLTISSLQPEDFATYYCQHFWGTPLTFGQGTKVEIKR = 6.85
4) Fab0064-siRNA conjugate (Fab, V domains shown, siRNA-linker on a reduced cysteine; chain and residue not stated, also called Fab0064 (BLI conjugate columns)) VH: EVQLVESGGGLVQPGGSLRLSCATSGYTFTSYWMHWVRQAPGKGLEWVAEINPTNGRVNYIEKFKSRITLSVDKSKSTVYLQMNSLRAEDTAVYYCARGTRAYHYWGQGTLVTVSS VL: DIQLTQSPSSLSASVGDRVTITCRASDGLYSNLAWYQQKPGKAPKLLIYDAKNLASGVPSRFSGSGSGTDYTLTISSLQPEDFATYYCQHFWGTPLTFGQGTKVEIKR = 5.96
